# Procedure details: self-splicing fitness, log relative to wild type (ln ratio); higher = more splicing; Tetrahymena group I intron in knt gene, E. coli kanamycin selection, DiMSum; sequences stand for … in CUCUCU…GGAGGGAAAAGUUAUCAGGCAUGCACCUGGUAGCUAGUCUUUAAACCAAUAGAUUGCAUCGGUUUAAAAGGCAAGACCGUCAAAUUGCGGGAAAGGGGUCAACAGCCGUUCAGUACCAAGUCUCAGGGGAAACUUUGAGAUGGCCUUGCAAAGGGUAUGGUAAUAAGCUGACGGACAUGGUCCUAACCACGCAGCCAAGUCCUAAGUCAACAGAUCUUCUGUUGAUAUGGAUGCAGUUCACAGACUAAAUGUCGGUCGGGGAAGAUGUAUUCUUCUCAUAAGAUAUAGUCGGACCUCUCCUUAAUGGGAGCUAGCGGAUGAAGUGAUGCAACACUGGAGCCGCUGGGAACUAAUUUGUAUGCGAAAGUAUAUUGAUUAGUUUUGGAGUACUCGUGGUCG;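 note: selection with 25 µg/mL kanamycin versus none on LB agar overnight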
# Run conditions: 37 °C
// class assignment uses self-splicing fitness (ln) with these ranges: low group (below -2), middle group (-2 to below -0.7), high group (-0.7 or more)

[
  {
    "Chain": "CCCCAGCAAUAUUACGCCAU",
    "Class label": "low group"
  },
  {
    "Chain": "CAGUAGCAAUAUUACGGUAA",
    "Class label": "middle group"
  },
  {
    "Chain": "UGCCAGCAAUAUUACGUUCG",
    "Class label": "high group"
  },
  {
    "Chain": "ACCUAGCAAUAUUACGUUUA",
    "Class label": "low group"
  }
]

State the class of the sequence shown: AGAUAGCAAUAUUACGCGCU
middle group

Band of CUAUAGCAAUAUUACGCGGU ?
low group

Dear colleague, I would appreciate it if you could identify the bin for GCUAAGCAAUAUUACGCAGA and reply at your convenience.
high group

Hello team, could you let me know which band the following sequence falls into: GGGGAGCAAUAUUACGGUAU
low group
